- ASSAY_SYSTEM: Calcium and integrin-binding protein 1 (Homo sapiens) (UniProt Q99828)
- Sequence (Q99828 whole entry, looked up): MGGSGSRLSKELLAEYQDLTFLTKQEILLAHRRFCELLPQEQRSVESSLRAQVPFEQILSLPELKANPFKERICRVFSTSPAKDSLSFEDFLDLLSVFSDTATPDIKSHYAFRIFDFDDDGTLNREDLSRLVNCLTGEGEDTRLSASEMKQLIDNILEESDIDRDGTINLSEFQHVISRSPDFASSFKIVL
- MEASUREMENT_PROTOCOL: Primary qHTS for Identification of Calcium Integrin Binding Protein 1 (CIB1) Competitor (AID 1508620);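 note: GST tagged CIB1 binding a fluorescein labelled alphaIIb integrin peptide tracer; top concentration of the series differs between compounds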
- ASSAY_CONDITIONS: CIB1-GST / FITC-alphaIIb peptide fluorescence polarization; series mostly up to 114 µM
Results filed as inconclusive are left out. The source made the active and inactive calls. Calls come from the whole dose curve; as a rule, active = well fitted inhibition curve with a large enough effect; inconclusive = small, poorly fitted or top-dose-only effect; inactive = flat fitted curve, though single readings scatter.
OBSERVATION_TYPE: activity change, negative = inhibition

Use the examples below as a reference point.
CC1OC(OC2C(C)OC(OC3C(O)C(CO)OC(O[C@H]4CC[C@@]5(C)C(CC[C@]6(C)C5CC=C5C7[C@@H](C)[C@H](C)CC[C@]7(C(=O)O)CC[C@]56C(=O)O)C4(C)C)C3O)C(O)C2O)C(O)C(O)C1O (some centres not stated) ... inactive
CC1CC(C(O)C(C)(C)O)OC2CC3(C)C4(C)CCC5C(C)(C)C(=O)CCC5(C)C4CCC3(O)C12O (configuration not stated) ... inactive
COC(=O)C(C)C1CCC2(C)C(=O)C=CC(C)(O)C2C1O (configuration not stated) ... inactive
CCNC(=O)C1OC(n2cnc3c(N)nc(NCCc4ccc(CCC(=O)O)cc4)nc32)C(O)C1O (configuration not stated) ... inactive
CCOCc1cc(OC)c(-c2ccc(C[C@H](NC(=O)c3c(F)cccc3F)C(=O)O)cc2)c(OC)c1 ... inactive

Read off the recorded activity change, negative = inhibition for C/C=C(\C)C(=O)OCC1OC(OC2OC(COC(=O)/C(C)=C/C)C(OC3OC(CO)C(OC(=O)/C(C)=C/C)C(OC(=O)/C(C)=C/C)C3O)C(O)C2O)C(O)C(O)C1OC1OC(CO)C(OC(=O)/C(C)=C/C)C(OC(=O)/C(C)=C/C)C1O (configuration not stated)
inactive

Read off the recorded activity change, negative = inhibition for COc1cc(Nc2nc3c(s2)CCCC3c2ccc(F)cc2)ccc1-n1cnc(C)c1 (configuration not stated)
inactive

====

- MEASUREMENT_PROTOCOL: Primary qHTS for inhibitors of nuclear receptor binding SET domain protein 2 (NSD2) in an RCH-ACV wild type WT cells (2C) (AID 1645877); note: nearly all actives have a fitted effect of over 70% in size
- ASSAY_CONDITIONS: RCH-ACV (leukaemia line) NSD2 WT (2C) viability, CellTiter-Glo, 72 h; series mostly up to 44.9 µM
Records with an inconclusive call do not appear. Active and inactive are the calls of the source. The call rests on the fitted dose curve; in most records, active means well fitted inhibition curve with a large enough effect; inconclusive means small, poorly fitted or top-dose-only effect; inactive means no such curve, though single readings can be large or run the other way.
Log the outcome using a class from True = active, False = inactive

CC(C)=CCC(O)/C(C)=C/CO[C@@H]1O[C@H](CO)[C@@H](O)[C@H](O)[C@H]1O (some centres undefined) ... False

Given Nc1nc(Nc2ccc(S(N)(=O)=O)cc2)n(C(=S)Nc2c(F)cccc2F)n1 , state the outcome it received in this test.
False

Given C[C@H]1[C@H](O)O[C@@H]2O[C@@]3(C)CC[C@H]4[C@H](C)CC[C@@H]1[C@@]24OO3 , state the outcome it received in this test.
True

Given COc1ccc(-c2c(-c3cc(C(=O)O)ccn3)ncn2C)cc1 , state the outcome it received in this test.
False

Given COc1cc(Nc2nc3c(s2)CCCC3c2ccc(F)cc2)ccc1-n1cnc(C)c1 (centres undefined) , state the outcome it received in this test.
True

Given O=C1CC2(CCCC2)[C@H](O)C(=O)N1CCCCN1CCN(c2ncccn2)CC1 , state the outcome it received in this test.
False

Given COc1c2c(c(C)c3c1C(=O)OC3)OC1(C)CC(O)C34OC(OC)(CC(OC(C)=O)C3(C)C1C2)OC4(C)C (centres undefined) , state the outcome it received in this test.
False

Given CC/C=C/CC1=C(CCCCC(CCC(=O)O)OC(C)=O)CCC1=O (centres undefined) , state the outcome it received in this test.
True

Given C=C1CC2C(C)(CCC(=O)O)C(C(C)(C)O)CCC2(C)C2C(=O)OC(C)(C(=O)OC)C(=O)C12C (centres undefined) , state the outcome it received in this test.
False
